tested_on: CSF-1R (Homo sapiens, UniProt P07333)
Sequence (P07333 20-972): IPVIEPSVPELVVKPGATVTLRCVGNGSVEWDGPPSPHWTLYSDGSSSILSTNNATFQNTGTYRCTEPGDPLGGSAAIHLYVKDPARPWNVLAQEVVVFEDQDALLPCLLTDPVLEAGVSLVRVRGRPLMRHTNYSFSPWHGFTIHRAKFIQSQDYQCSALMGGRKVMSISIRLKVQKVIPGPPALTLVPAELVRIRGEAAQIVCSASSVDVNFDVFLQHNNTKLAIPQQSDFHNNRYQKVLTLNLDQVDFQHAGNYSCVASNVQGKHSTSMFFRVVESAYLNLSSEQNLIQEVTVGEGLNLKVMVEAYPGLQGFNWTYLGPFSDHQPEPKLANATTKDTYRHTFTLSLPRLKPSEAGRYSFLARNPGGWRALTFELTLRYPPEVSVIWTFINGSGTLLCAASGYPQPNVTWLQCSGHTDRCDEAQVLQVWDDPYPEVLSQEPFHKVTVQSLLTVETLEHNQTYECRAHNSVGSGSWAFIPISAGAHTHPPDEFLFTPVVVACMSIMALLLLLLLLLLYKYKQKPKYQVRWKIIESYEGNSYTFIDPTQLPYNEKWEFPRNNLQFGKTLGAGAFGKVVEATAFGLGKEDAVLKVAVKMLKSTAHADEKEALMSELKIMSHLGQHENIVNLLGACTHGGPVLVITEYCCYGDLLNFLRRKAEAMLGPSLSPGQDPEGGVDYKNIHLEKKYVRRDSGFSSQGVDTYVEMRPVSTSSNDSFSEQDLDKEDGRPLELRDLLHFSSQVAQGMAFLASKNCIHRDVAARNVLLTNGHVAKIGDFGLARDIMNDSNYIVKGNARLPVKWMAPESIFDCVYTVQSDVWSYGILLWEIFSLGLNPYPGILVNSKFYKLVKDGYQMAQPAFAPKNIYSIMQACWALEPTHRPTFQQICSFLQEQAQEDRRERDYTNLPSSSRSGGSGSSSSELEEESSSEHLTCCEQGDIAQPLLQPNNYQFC
assay: Peptide (non-phosphorylated) assay, fluorescence polarization competition immunoassay
Assay type: biochemical
run_conditions: 0.7 nM CSF-1R, 308 μM SYEGNSYTFIDPTQ peptide, 1 mM ATP, 80 min; mean of at least three determinations; read-out: c-fms Peptide IC50
Assignment: determine reported pIC50 for the given molecules.
Answers are plain numbers, as −log10 of the molar value.

Query :: Report pIC50 for CCc1ccc(-n2cc(C(=O)NOC)c(=O)c3cnc(Nc4ccc(OC5CCNCC5)cc4)nc32)cc1 [Cpd 307] please.
Result :: 9.40

Query :: Entry under review: CONC(=O)c1cn(-c2ccc3c(c2)CCC3)c2nc(Nc3cccc(S(=O)(=O)N(C)C)c3)ncc2c1=O [Cpd 129] . Reported pIC50?
Result :: 8.64

Query :: Could you share which pIC50 value was measured for CN(C)C(=O)Cc1ccc(Nc2ncc3c(=O)c(C(N)=O)cn(-c4ccc5c(c4)CCC5)c3n2)cc1 [Cpd 118] ?
Result :: 8.35

Query :: GET /values?readout=pIC50&item= CCc1ccc(-n2cc(C(=O)NOC)c(=O)c3cnc(Nc4ccc(NCCCOC)cc4)nc32)cc1 [Cpd 213]
Result :: 8.96

Query :: What does the data say about its pIC50? Entry: CONC(=O)c1cn(-c2ccc(F)c(Cl)c2)c2nc(Nc3ccc(CCN4CCN(C)CC4)cc3)ncc2c1=O [Cpd 4]
Result :: 8.66

# map each molecule to its pIC50
1. CCc1ccc(-n2cc(C(=O)NOC)c(=O)c3cnc(Nc4ccc(CC(=O)NNC)cc4)nc32)cc1 [Cpd 106]
2. CONC(=O)c1cn(-c2ccc3c(c2)CCC3)c2nc(Nc3ccc(CCN4CCN(C(=O)OC)CC4)cc3)ncc2c1=O [Cpd 150]
3. CCc1ccc(-n2cc(C(=O)NOC)c(=O)c3cnc(Nc4ccc([C@]5(O)CCN(C)C[C@H]5O)cc4)nc32)cc1 [Cpd 249]
4. CC(=O)N1CCC(c2ccc(Nc3ncc4c(=O)c(C(N)=O)cn(-c5ccc6c(c5)CCC6)c4n3)cc2)CC1 [Cpd 126]
5. CONC(=O)c1cn(-c2ccc3c(c2)CCC3)c2nc(Nc3ccc(N4CCC[C@H]4CO)cc3)ncc2c1=O [Cpd 7]
6. CONC(=O)c1cn(-c2ccc3c(c2)CCC3)c2nc(Nc3ccc(CCN4CCC[C@@H](O)C4)cc3)ncc2c1=O [Cpd 239]
7. CONC(=O)c1cn(-c2ccc3c(c2)CCC3)c2nc(Nc3cccc(N4CCOCC4)c3)ncc2c1=O [Cpd 325]

Result ::
[8.80, 9.12, 9.26, 8.74, 8.77, 9.49, 9.30]

For each of the molecules below, state pIC50.
1. CCc1ccc(-n2cc(C(=O)NOC(C)C)c(=O)c3cnc(Nc4ccc(C5CCN(S(C)(=O)=O)CC5)cc4)nc32)cc1 [Cpd 60]
2. CCc1ccc(-n2cc(C(=O)NOC)c(=O)c3cnc(Nc4ccc(CC(=O)NN5CCCCC5)cc4)nc32)cc1 [Cpd 104]

Result ::
1. 8.15
2. 8.52

----------
tested_on: CSF-1R (Homo sapiens)
assay: Peptide (non-phosphorylated) assay, fluorescence polarization competition immunoassay
Assay type: biochemical
run_conditions: 0.7 nM CSF-1R, 308 μM SYEGNSYTFIDPTQ peptide, 1 mM ATP, 80 min; mean of at least three determinations; read-out: c-fms Peptide IC50
Classify: yes (1) when IC50 is strictly less than 2 nM; no (0) when IC50 is not.

These solved cases illustrate the format of a correct answer.
Query :: In plain terms, does CONC(=O)c1cn(-c2ccc3c(c2)CCC3)c2nc(Nc3ccc(CCn4ccnc4)cc3)ncc2c1=O come in under 2 nM for IC50?
Result :: yes (1)

Query :: Criterion: IC50 strictly below 2 nM. Is it met by CONC(=O)c1cn(-c2cnc3c(c2)CCC3)c2nc(Nc3ccc(CCS(C)(=O)=O)cc3)ncc2c1=O ?
Result :: no (0)

Query :: Identify whether the molecule CONC(=O)c1cn(-c2ccc3c(c2)CCC3)c2nc(Nc3ccc(CCN4CCN(CC(F)(F)F)CC4)cc3)ncc2c1=O records IC50 below 2 nM.
Result :: no (0)

Query :: Consider the molecule CONC(=O)c1cn(-c2ccc3c(c2)CCC3)c2nc(Nc3ccc(CC(=O)N4CCN(C)CC4)cc3)ncc2c1=O . Is its IC50 strictly less than 2 nM?
Result :: yes (1)

Query :: is_below(IC50, 2 nM) for CCc1ccc(-n2cc(C(=O)NOC)c(=O)c3cnc(Nc4ccc(CC(=O)NN(C)C)cc4)nc32)cc1 ?
Result :: yes (1)

Others:
Query :: # TODO verify IC50 < 2 nM strictly for this molecule: CCN1CCCCC1c1ccc(Nc2ncc3c(=O)c(C(=O)NOC)cn(-c4ccc5c(c4)CCC5)c3n2)cc1 (stereo not drawn)
Result :: yes (1)

Query :: hey, is IC50 for CCc1ccc(-n2cc(C(=O)NOC)c(=O)c3cnc(Nc4ccccc4)nc32)cc1 lower than 2 nM or not?
Result :: yes (1)

Query :: Regarding CONC(=O)c1cn(-c2ccc3c(c2)CCC3)c2nc(Nc3ccc(C4CCN(CC(F)(F)F)CC4)cc3)ncc2c1=O , kindly confirm whether its IC50 is beneath 2 nM.
Result :: no (0)

----------
tested_on: CSF-1R (Homo sapiens, UniProt P07333)
assay: Peptide (non-phosphorylated) assay, fluorescence polarization competition immunoassay
Assay type: biochemical
run_conditions: 0.7 nM CSF-1R, 308 μM SYEGNSYTFIDPTQ peptide, 1 mM ATP, 80 min; mean of at least three determinations; read-out: c-fms Peptide IC50
Field: IC50. Provide a value for each of the compounds that follow.
Numbers only, in nM.

Study these solved cases before continuing.
Query :: Looking for the measured IC50 of CONC(=O)c1cn(-c2ccc3c(c2)CCC3)c2nc(Nc3ccc(CCN(CCO)CCO)cc3)ncc2c1=O , can you help?
Result :: 0.64

Query :: IC50 lookup needed for CCCN1CCC(c2ccc(Nc3ncc4c(=O)c(C(=O)NOC)cn(-c5ccc6c(c5)CCC6)c4n3)cc2)CC1 , thanks.
Result :: 0.4

Query :: State the recorded IC50 for this entry: CONC(=O)c1cn(-c2ccc3c(c2)CCC3)c2nc(Nc3ccc(CCN4CCC4)cc3)ncc2c1=O
Result :: 0.59

Consider the additional compound presented here.
Query :: For the compound shown here, CCc1ccc(-n2cc(C(=O)NOC)c(=O)c3cnc(Nc4ccc5c(c4)N(C(C)=O)CC5)nc32)cc1 , give the reported IC50.
Result :: 1.5

----------
tested_on: CSF-1R (Homo sapiens, UniProt P07333)
assay: Peptide (non-phosphorylated) assay, fluorescence polarization competition immunoassay
Type: biochemical
run_conditions: 0.7 nM CSF-1R, 308 μM SYEGNSYTFIDPTQ peptide, 1 mM ATP, 80 min; mean of at least three determinations; read-out: c-fms Peptide IC50
Response field label: string, one of YES (IC50 strictly below 2 nM) or NO.

Query :: Item CCc1ccc(-n2cc(C(=O)NOC(C)C)c(=O)c3cnc(Nc4ccc(C5CCNCC5)cc4)nc32)cc1 : IC50 beneath 2 nM, strictly?
Result :: YES

Query :: Is IC50 strictly under 2 nM for the entry CONC(=O)c1cn(C2CCCC2)c2nc(Nc3ccc(C(=O)N4CCCC4)cc3)ncc2c1=O ?
Result :: NO

Query :: Please check: IC50 for CONC(=O)c1cn(-c2ccc3c(c2)CCC3)c2nc(Nc3ccc(-n4cccn4)cc3)ncc2c1=O , strictly under 2 nM or not?
Result :: NO

Next:
Query :: Find out if reported IC50 for CCc1ccc(-n2cc(C(=O)NOC(C)C)c(=O)c3cnc(Nc4ccc(C5CCN(C(C)=O)CC5)cc4)nc32)cc1 is less than 2 nM
Result :: NO

Query :: Quick check: IC50 of CONC(=O)c1cn(-c2ccc3c(c2)CCC3)c2nc(Nc3cccc(CCN4CCN(S(C)(=O)=O)CC4)c3)ncc2c1=O under 2 nM?
Result :: YES

----------
Provide the reported IC50 of each item.
tested_on: CSF-1R (Homo sapiens, UniProt P07333)
assay: Peptide (non-phosphorylated) assay, fluorescence polarization competition immunoassay
Format: biochemical
run_conditions: c-fms Peptide IC50, 0.7 nM CSF-1R, 308 μM SYEGNSYTFIDPTQ peptide, 1 mM ATP, 80 min; mean of at least three determinations
Answers are plain numbers, in nM.

Sample records with IC50:
Query :: Would you kindly share the measured IC50 for CONC(=O)c1cn(-c2ccc3c(c2)CCC3)c2nc(Nc3ccc(CCS(=O)(=O)NC(C)=O)cc3)ncc2c1=O ?
Result :: 2.4

Query :: Which IC50 value belongs to CONC(=O)c1cn(-c2ccc3c(c2)CCC3)c2nc(Nc3ccc(CCN4CCC(F)(F)CC4)cc3)ncc2c1=O ?
Result :: 1.7

Query :: Reported IC50 for CONC(=O)c1cn(C2CCC(C)(C)CC2)c2nc(Nc3ccc(C4CCN(C)CC4)cc3)ncc2c1=O : what is it?
Result :: 0.4

Answer for every listed entry: what is its IC50? The entries follow.
1. CONC(=O)c1cn(-c2ccc3c(c2)CCC3)c2nc(Nc3ccc(CCN4CCOCC4)cc3)ncc2c1=O
2. CCc1ccc(-n2cc(C(=O)NOC)c(=O)c3cnc(Nc4ccc(C5CCN(C)CC5)cc4)nc32)cc1

Result ::
1. 1.3
2. 0.3
